protocol-text: Human HepG2 cell viability assay in 384 well format
Format: toxicity, cell-based
Design: dose 125 nL, time 70.5 hour; concentration not given beside the values
assay-conditions: HepG2 cells, read-out: Inhibition
experimental-readout: cytotoxicity at 70.5 h (%)
Return type: number; implicit unit %.

# compound, cytotoxicity at 70.5 h, %
data = [
    ("COc1ccc(C(=O)NS(C)(=O)=O)cc1-c1ccccc1", -1.59),
    ("CCOc1cccc(CNc2cncc(-n3cccn3)n2)c1", -8.59),
    ("CCCNC(=O)NC(=O)CN(CC(C)O)c1ccccc1 (centres undefined)", -3.55),
    ("CCc1ccc(C(=O)NCc2cccc(S(=O)(=O)NC)c2)o1", -0.952),
    ("CCCc1nc(C)c(C(=O)NCCN2CCN(CC)CC2)s1", -5.5),
]

Record Fc1cnc(N2CCn3cc(CNc4ccccn4)nc3C2)nc1 . Reported cytotoxicity at 70.5 h: -17.4

Record CN1CCN(CC2CC2)C(=O)c2cnc(N3CCCC3)nc21 . Reported cytotoxicity at 70.5 h: 15.9

Record CNC(=O)[C@@H]1[C@@H](c2ccccc2)CN2CCN(Cc3ccco3)C[C@H]12 . Reported cytotoxicity at 70.5 h: 23.2

Record CC(C)CN1CCCn2nc(CNC(=O)CCN)cc2C1 . Reported cytotoxicity at 70.5 h: -6.27

Record CNC(=O)c1cccnc1NCCOc1ccc(CC#N)cc1 . Reported cytotoxicity at 70.5 h: -0.53

Record Cn1nc2c(c1NC(=O)c1cccs1)CCC2 . Reported cytotoxicity at 70.5 h: -12.2

Record CC1(NC(=O)CNC(=O)C(C)(C)C)CCc2ccccc2C1 (centres undefined) . Reported cytotoxicity at 70.5 h: -7.61

Record CCN(CC)C(=O)Cn1c(=O)n(Cc2ccco2)c2ncccc21 . Reported cytotoxicity at 70.5 h: -3.1

Record Cc1nc(NC(=O)NCCCN2CCC(C(N)=O)CC2)sc1C . Reported cytotoxicity at 70.5 h: -19.5

Record NC(=O)COc1ccc(CNC(=O)CN2CCc3ccccc32)cc1 . Reported cytotoxicity at 70.5 h: 0.272

Record Cc1cnn(CC2CN(CCCc3nc4ccccc4o3)CCO2)c1 (centres undefined) . Reported cytotoxicity at 70.5 h: -0.695

Record O=C(c1cc(-n2cccn2)ccn1)N1CCOc2ccc(F)cc21 . Reported cytotoxicity at 70.5 h: 0.748

Record O=C(C1=CCCC1)N1CCO[C@H]2[C@@H](OCC3CC3)CC[C@@H]21 . Reported cytotoxicity at 70.5 h: -17.4

Record CN1CCN(C2CCN(CCOc3ccc(C#N)cc3)CC2)C1=O . Reported cytotoxicity at 70.5 h: -5.65

Record Cn1ccnc1COc1ccc(CSc2nnnn2C2CC2)cc1 . Reported cytotoxicity at 70.5 h: 6.53

Record O=C1CC(c2ccc(F)c(F)c2)c2snc(C(=O)O)c2N1 (centres undefined) . Reported cytotoxicity at 70.5 h: 8.54

Record COc1ccc(C)c2c1N(C(=O)c1cnc(C)s1)CCC2 . Reported cytotoxicity at 70.5 h: -1.73

Record O=C(CC1CC1)N1CCn2cc(Cn3cncn3)nc2C1 . Reported cytotoxicity at 70.5 h: -18.5

Record CCOC(=O)CN1CCC2(CC1)CC(=O)c1ccc(OC)cc1O2 . Reported cytotoxicity at 70.5 h: 2.89
